# System: A/Hiroshima/57/2014 (H275Y/I223R)
property.measured: IC50 (nM)

[[record]]
compound_smiles = "O=C1c2c(O)c(=O)ccn2N([C@@H]2c3ccccc3SCc3c2ccc(F)c3F)[C@@H]2COCCN12"
property_measured = "IC50"
measurement = 8.34


* * *

# Tested on: A/Osaka/8/2014 (H275Y)
pIC50: −log10 of the molar value.
property.measured: pIC50

[[record]]
compound_smiles = "O=C1c2c(O)c(=O)ccn2N([C@@H]2c3ccccc3SCc3c2ccc(F)c3F)[C@@H]2COCCN12"
measurement = 8.29


* * *

# assayed.system: neuraminidase of A/Ibaraki/54/2016 (H275Y/I223K) (Influenza A virus, UniProt A0A0X9QTS2, H275Y/I223K)
pIC50: −log10 of the molar value.
property.measured: pIC50

[[record]]
molecule = "CCC(CC)[C@H](NC(C)=O)[C@@H]1[C@H](O)[C@@H](C(=O)O)C[C@H]1N=C(N)N.O.O.O [Peramivir, peramivir trihydrate]"
measurement = 6.30


* * *

# assayed.system: neuraminidase of A/Hiroshima/57/2014 (H275Y/I223R) (Influenza A virus, UniProt W8DXJ8, H275Y/I223R)
pIC50: −log10 of the molar value.
property.measured: pIC50

[[record]]
compound = "CCC(CC)[C@H](NC(C)=O)[C@@H]1[C@H](O)[C@@H](C(=O)O)C[C@H]1N=C(N)N.O.O.O [Peramivir, peramivir trihydrate]"
measurement = 6.02


* * *

# assayed.system: neuraminidase of A/Yokohama/94/2016 (H275Y) (Influenza A virus, UniProt A0A0X9QTS2, H275Y)
pIC50: −log10 of the molar value.
property.measured: pIC50

[[record]]
compound = "CCC(CC)[C@H](NC(C)=O)[C@@H]1[C@H](O)[C@@H](C(=O)O)C[C@H]1N=C(N)N.O.O.O [Peramivir, peramivir trihydrate]"
measurement = 7.68


* * *

# Test system: A/Hiroshima/13/2016 (H275Y/G147R)
property.measured: IC50 (µM)

[[record]]
compound_smiles = "O=C1c2c(O)c(=O)ccn2N([C@@H]2c3ccccc3SCc3c2ccc(F)c3F)[C@@H]2COCCN12"
property_measured = "IC50"
measurement = 0.0106


* * *

# assayed.system: neuraminidase of A/Aichi/83/2016 (H275Y) (Influenza A virus, UniProt A0A0X9QTS2, H275Y)
pIC50: −log10 of the molar value.
property.measured: pIC50

[[record]]
compound = "CCC(CC)[C@H](NC(C)=O)[C@@H]1[C@H](O)[C@@H](C(=O)O)C[C@H]1N=C(N)N.O.O.O [Peramivir, peramivir trihydrate]"
assayed_system = "neuraminidase of A/Aichi/83/2016 (H275Y) (Influenza A virus, UniProt A0A0X9QTS2, H275Y)"
property_measured = "pIC50"
measurement = 7.50


* * *

# Test system: A/Osaka/8/2014 (H275Y)
property.measured: EC50

[[record]]
compound_smiles = "NC(=O)c1nc(F)c[nH]c1=O"
assayed_system = "A/Osaka/8/2014 (H275Y)"
property_measured = "EC50"
measurement = "4.76 µM"


* * *

# Test system: A/Yokohama/94/2016 (H275Y)
property.measured: IC50 (nM)

[[record]]
compound_smiles = "O=C1c2c(O)c(=O)ccn2N([C@@H]2c3ccccc3SCc3c2ccc(F)c3F)[C@@H]2COCCN12"
property_measured = "IC50"
measurement = 3.49

